Measured pKd, listed per entry.
Molecular target: MD-2 (TLR4/MD-2 complex) (Homo sapiens, UniProt Q9Y6Y9)
Construct: Recombinant human TLR4/MD2 complex; with TLR4
Sequence (Q9Y6Y9 19-160): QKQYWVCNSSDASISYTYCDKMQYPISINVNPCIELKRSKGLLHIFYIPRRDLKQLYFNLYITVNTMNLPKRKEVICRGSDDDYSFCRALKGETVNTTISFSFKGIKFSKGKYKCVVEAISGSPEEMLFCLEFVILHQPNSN
Sequence (O00206 24-839 partner): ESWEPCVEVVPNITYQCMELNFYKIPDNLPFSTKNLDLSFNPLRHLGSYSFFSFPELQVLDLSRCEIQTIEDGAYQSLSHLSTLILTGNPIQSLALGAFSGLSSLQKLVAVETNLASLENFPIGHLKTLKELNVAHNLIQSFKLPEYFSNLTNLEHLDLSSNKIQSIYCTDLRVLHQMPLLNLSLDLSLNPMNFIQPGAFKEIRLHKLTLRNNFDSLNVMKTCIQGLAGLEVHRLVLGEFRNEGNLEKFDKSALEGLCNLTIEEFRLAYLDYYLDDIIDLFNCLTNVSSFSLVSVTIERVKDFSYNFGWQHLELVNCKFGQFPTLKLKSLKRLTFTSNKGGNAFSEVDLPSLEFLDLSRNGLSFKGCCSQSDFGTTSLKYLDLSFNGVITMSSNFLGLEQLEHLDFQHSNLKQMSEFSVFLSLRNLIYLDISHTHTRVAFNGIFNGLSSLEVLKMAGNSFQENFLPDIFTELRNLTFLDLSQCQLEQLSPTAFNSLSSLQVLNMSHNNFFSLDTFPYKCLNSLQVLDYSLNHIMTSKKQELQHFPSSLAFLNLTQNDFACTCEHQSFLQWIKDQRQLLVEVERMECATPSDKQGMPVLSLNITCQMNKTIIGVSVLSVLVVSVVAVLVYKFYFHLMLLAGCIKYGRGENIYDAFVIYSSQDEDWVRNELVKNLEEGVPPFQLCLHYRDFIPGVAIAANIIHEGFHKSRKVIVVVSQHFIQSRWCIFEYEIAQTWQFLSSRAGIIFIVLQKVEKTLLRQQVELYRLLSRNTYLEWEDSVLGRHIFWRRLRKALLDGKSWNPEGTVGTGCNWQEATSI
Experiment: SPR (Biacore X100) on immobilized recombinant human TLR4/MD-2; agonism supported in HEK-Blue hTLR4 cells
# reply with the number alone; pKd is -log10 of concentration in mol/L

{"structure": "CCCCCCCCCCCCCC(=O)N[C@H]1[C@@H](OP(=O)(O)O)O[C@H](CO)[C@@H](OC(=O)CCCCCCCCCCCCC)[C@@H]1OC(=O)CCCCCCCCCCCCC", "value": 6.74}

Now for a further compound.
// sample CCCCCCCCCCCC(=O)N[C@H]1[C@@H](OP(=O)(O)O)O[C@H](CO)[C@@H](OC(=O)CCCCCCCCCCC)[C@@H]1OC(=O)CCCCCCCCCCC , its pKd was 6.24
